Where these numbers come from: ChEMBL document CHEMBL1961873

Target: Protein kinase C alpha type (Homo sapiens);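 note: reported value is the mean inhibition, measured within the GSK PKIS screening panel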
Details: at 1 µM
Think of 6% as a floor: if inhibition stands on it or above, it is Satisfied; beneath it, Not satisfied.

The following compounds have reported results that may help.
chemical string: CN1CCC(n2cnc(-c3ccc(F)cc3)c2-c2ccnc(Nc3ccccc3)n2)CC1
discrete label: Satisfied
//
chemical string: CCn1c(-c2nonc2N)nc2c(C#CC(C)(C)O)nc(OC[C@H](N)c3ccccc3)cc21
discrete label: Satisfied
//
chemical string: COc1ccc(-c2cc3c(N)ncnc3o2)cc1
discrete label: Not satisfied
//
chemical string: Cc1ccc2c(-c3ccnc(Nc4ccccc4)n3)c(-c3ccc(F)cc3)nn2n1
discrete label: Satisfied
//
chemical string: N#Cc1c(NC(=O)CN2CCOCC2)sc2c1CCCC2
discrete label: Not satisfied
//
chemical string: c1cc(-c2cnn3nc(N4CCOCC4)ccc23)nc(NC2CC2)n1
discrete label: Satisfied

*Q* I'd appreciate it if you could say whether O=S(=O)(CCNCc1ccc(-c2ccc3ncnc(Nc4ccc(OCc5cccc(F)c5)c(Cl)c4)c3c2)o1)c1ccccc1 has inhibition at least equal to 6%.
*A* Not satisfied

*Q* I'd appreciate it if you could say whether COc1cc2ncn(-c3cc(OCc4ccccc4C(F)(F)F)c(C(=O)N(C)C)s3)c2cc1OC has inhibition at least equal to 6%.
*A* Not satisfied

*Q* I'd appreciate it if you could say whether COc1ccc(CNC(=O)c2ccc(-c3cc(-c4nnc(C)o4)ccc3C)cc2)cc1 has inhibition at least equal to 6%.
*A* Not satisfied

*Q* I'd appreciate it if you could say whether Fc1ccc(-c2nn3ncccc3c2-c2ccnc(Nc3ccc4c(c3)OCCO4)n2)cc1 has inhibition at least equal to 6%.
*A* Satisfied
